The values you see were collected from ChEMBL document CHEMBL1125314.

Assay Protocol: The compound was tested for hydrolysis rate at pH 9
Type: ADME
Experimental Setup: buffer
Recorded k obs for the following molecules
Readout Kind: k obs (min⁻¹)

1) Cc1ccc(NCN2C(=O)c3ccccc3C2=O)c(=O)[nH]1
0.027
2) O=C1c2ccccc2C(=O)N1CNc1cccnc1O
0.02417
3) O=C1c2ccccc2C(=O)N1CNc1cc2c(nc1O)CCCC2
0.03678
4) CCc1nc(O)c(NCN2C(=O)c3ccccc3C2=O)cc1C
0.03627
5) CCc1cc(NCN2C(=O)c3ccccc3C2=O)c(O)nc1C
0.0243

====

Assay Target: Human immunodeficiency virus type 1 reverse transcriptase (Human immunodeficiency virus 1, UniProt Q72547)
Readout Kind: log10 IC50 (log10 of the value in µM)

1) Cc1ccc(NCN2C(=O)c3ccccc3C2=O)c(=O)[nH]1
0.91
2) CCc1nc(O)c(NCN2C(=O)c3ccccc3C2=O)cc1C
-0.05
3) CCCCc1cc(NCN2C(=O)c3ccccc3C2=O)c(O)nc1C
-0.89
4) Cc1cc(NCN2C(=O)c3ccccc3C2=O)c(O)nc1C
-0.66
5) CCc1cc(CN2C(=O)c3ccccc3C2=O)c(=O)[nH]c1C
1.42
6) CCC1=C(C)NC(OC)C(CCN2C(=O)c3ccccc3C2=O)=C1 (stereo not given)
0.79
7) CCc1cc(NCCCN2C(=O)c3ccccc3C2=O)c(=O)[nH]c1C
2.28
8) CCCc1cc(NCN2C(=O)c3ccccc3C2=O)c(=O)[nH]c1C
-1.24
9) CCC1=C(C)NC(OC)C(CN2C(=O)c3ccccc3C2=O)=C1 (stereo not given)
1.20
10) CCc1cc(CCCN2C(=O)c3ccccc3C2=O)c(O)nc1C
2.32
11) O=C1c2ccccc2C(=O)N1CNc1cc2c(nc1O)CCCC2
0.57
12) O=C1c2ccccc2C(=O)N1CNc1cccnc1O
0.22
13) CCc1cc(NCCN2C(=O)c3ccccc3C2=O)c(=O)[nH]c1C
1.65
14) CCc1cc(/C=C/N2C(=O)c3ccccc3C2=O)c(=O)[nH]c1C
1.73
